IC50, inhibition of BAE cell proliferation ([methyl-3H]-thymidine incorporation) listing for selected binders.
experimental.system: proteasome in bovine aortic endothelial (BAE) cells (bovine)
method.description: cell-based or functional assay
Primed or numbered codes have the meaning given here. [ ]: non-standard residue; d: D form. α′‑methyl‑α′,β′‑epoxide = C-terminal α′-methyl-α′,β′-epoxyketone; hPhe = N[C@@H](CCc1ccccc1)C(=O)O
measurement.label: IC50, inhibition of BAE cell proliferation ([methyl-3H]-thymidine incorporation)

binder: Ac-ALLL-{α′‑methyl‑α′,β′‑epoxide} [Ac-ALLL-epoxide]
reported: 83 nM
--
binder: Ac-[hPhe]LFL-{α′‑methyl‑α′,β′‑epoxide} [compound 16]
reported: 20 nM
--
binder: Ac-LFLL-{α′‑methyl‑α′,β′‑epoxide} [Ac-LFLL-epoxide]
reported: 16 nM
--
binder: Ac-LLAL-{α′‑methyl‑α′,β′‑epoxide} [Ac-LLAL-epoxide]
reported: 34 nM
--
binder: Ac-LALL-{α′‑methyl‑α′,β′‑epoxide} [Ac-LALL-epoxide]
reported: 700 nM
--
binder: Ac-LLFL-{α′‑methyl‑α′,β′‑epoxide} [Ac-LLFL-epoxide]
reported: 7 nM

// provenance: patent US20040266664A1
